tested on: Plasmodium falciparum; experiment: Antimalarial activity against Plasmodium falciparum K1 by microculture radioisotope technique; format: functional, organism-based
The source made the active and inactive calls. The rule behind the calls is not given here.

smiles_code | Activity
CO[C@H]1[C@H](O)[C@@H](O)[C@H](Oc2cc(O)c3c(=O)oc(C)cc3c2)O[C@@H]1CO | inactive
CO[C@H]1[C@H](O)[C@@H](O)[C@H](Oc2cc(O)c3c(=O)oc(CO)cc3c2)O[C@@H]1CO | inactive
Cc1cc2cc(O)cc(O)c2c(=O)o1 | inactive
CO[C@H]1[C@H](O)[C@@H](O)[C@H](OCc2cc3cc(O)cc(O)c3c(=O)o2)O[C@@H]1CO | inactive
